system: Streptococcus sp. 'group A'; experiment: Antimicrobial activity against Group A Streptococcus by agar dilution method; type: functional
For each record, write down the corresponding MIC50.
Give bare numbers, in µg/mL.

Use the examples below as a reference point.
COc1cc(Cc2cnc(N)nc2N)cc(/C=C/C(=O)N2N=Cc3ccccc3C2c2cnc(N(C)C)nc2)c1OC (stereo not drawn)
0.06
CC(=O)NC[C@H]1CN(c2ccc(N3CCOCC3)c(F)c2)C(=O)O1
1

Next up:
Challenge: Can you share its MIC50? I mean this compound: CN[C@H](CC(C)C)C(=O)N[C@H]1C(=O)N[C@@H](CC(N)=O)C(=O)N[C@H]2C(=O)N[C@H]3C(=O)N[C@H](C(=O)N[C@H](C(=O)O)c4cc(O)cc(O)c4-c4cc3ccc4O)[C@H](O)c3ccc(c(Cl)c3)Oc3cc2cc(c3O[C@@H]2O[C@H](CO)[C@@H](O)[C@H](O)[C@H]2O[C@H]2C[C@](C)(N)[C@H](O)[C@H](C)O2)Oc2ccc(cc2Cl)[C@H]1O
Response given: 0.25

The values you see were collected from ChEMBL document CHEMBL1649269.
